Origin of the recorded values: patent US20230123334A1

Test system: HEK293 cells
Experiment: Preliminary screening as mRNA vectors, EGFP mRNA transfection of HEK293 cells
Type: cell-based
Conditions: HEK293 cells, 96-well plates, EGFP mRNA 50 ng per well; percentage of GFP fluorescent cells relative to total number of cells (Hoechst)
property.name: Absolute mRNA transfection efficiency in HEK293 cells (%)

                                    molecule  readout_number
 0  CCCCCCCCCCCCCCCSc1nc(NCCN2CCCC2)nc(SCCCCCCCCCCCC)n1 [Compound S12S15D3]             9.7
 1  CCCCCCCCCCCCCCCCNc1nc(NCCN(C)C)nc(N(CCCCCCCCCCCC)CCCCCCCCCCCC)n1 [N16^2N12D1]             3.4
 2  CCCCCCCCCCCCCCCSc1nc(NCCN2CCCCC2)nc(SCCCCCCCCCC)n1 [Compound S10S15D4]             0.7
 3  CCCCCCCCCCCCCCSc1nc(NCCN2CCCC2)nc(SCCCCCCCCCCC)n1 [Compound S11S14D3]            17.9
 4  CCCCCCCCCCCCCCCSc1nc(NCCN(CC)CC)nc(SCCCCCCCCCCCC)n1 [Compound S12S15D7]             0.0
 5  CCCCCCCCCCCCCCCCNc1nc(NCCCCCCCCCCCC)nc(NCCCN(C)C)n1 [Compound N12N16D6]             1.9
 6  CCCCCCCCCCCCCNc1nc(NCCCCCCC)nc(NCCN2CCCC2)n1 [Compound N7N13D3]             7.8
 7  CCCCCCCCCCCCCCCSc1nc(NCCN(CC)CC)nc(SCCCCCCCCCCC)n1 [Compound S11S15D7]             0.7
 8  CCCCCCCCCCCCCCCCCCNc1nc(NCCCCCCCCC)nc(NCCN2CCCC2)n1 [Compound N9N18D3]             4.7
 9  CCCCCCCCCCCCCCCCNc1nc(NCCCCCCCCCCC)nc(NCCCN2CCOCC2)n1 [Compound N11N16D8]             0.4
10  CCCCCCCCCCCNc1nc(NCCCCCCCCCCC)nc(NCCCN2CCOCC2)n1 [Compound N11N11D8]             1.5
11  CCCCCCCCCCCCCCCNc1nc(NCCCCCCC)nc(NCCN(C)C)n1 [Compound N7N15D1]             1.3
12  CCCCCCCCCCCCCCCSc1nc(NCCN2CCN(C)CC2)nc(SCCCCCCCCCCCC)n1 [Compound S12S15D5]             1.4
13  CCCCCCCCCCCCCNc1nc(NCCCCCCCCC)nc(NCCN2CCCCC2)n1 [Compound N9N13D4]             0.5
14  CCCCCCCCCCCCCCCCCCNc1nc(NCCCCCCCC)nc(NCCN2CCOCC2)n1 [Compound N8N18D2]             7.0
15  CCCCCCCCCCCCCCCCCCSc1nc(NCC2CCN(C)CC2)nc(SCCCCCCCCCCCCCC)n1 [Compound S14S18D10]             1.5
16  CCCCCCCCCCCCN(CCCCCCCCCCCC)c1nc(NCCCCCC)nc(NCCN2CCCC2)n1 [N6^2N12D3]             0.1
